# System: H211 cell line
# assay-procedure: Cell activity detection, Alamar-Blue, H211
# Format: cell-based
# condition-info: Homo sapiens, NCI-H211, 72 h incubation
pIC50: −log10 of the molar value.
Outcome label depends on pIC50 relative to 8: at/above gives MET, below gives NOT MET.

Inquiry: Answer whether pIC50 of Cc1nnn(C)c1-c1cnc2c3c4cnn(C)c4ccc3n([C@H](c3ccccc3)C3CCOCC3)c2c1 is greater than or equal to 8.
Reply text: MET

Inquiry: I'd appreciate it if you could say whether Cc1nnn(C)c1-c1cnc2c3c4cc[nH]c4ccc3n([C@H](c3ccccc3)C3CCOCC3)c2c1 has pIC50 at least equal to 8.
Reply text: NOT MET

Inquiry: Evaluate [2H]C([2H])([2H])c1nnn(C)c1-c1cnc2c3c4cnn(C)c4ccc3n([C@H](c3ccccc3)C3CCOCC3)c2c1 : pIC50 at minimum 8?
Reply text: MET

Inquiry: Identify whether the reported pIC50 of the following compound is 8 or greater: Cc1nnn(C)c1-c1cnc2c3c4cn[nH]c4ccc3n([C@H](c3ccccc3)C3CCOCC3)c2c1
Reply text: MET
